// data source = patent US20040116420A1

Exercise: state measured pIC50 for each of the compounds provided.
// pIC50 here means minus log10 of the molar concentration (mol/L)

Please tell me: pIC50 of Cc1c(NC(=O)OC(C)(C)C)ccc2nc(N(C)[C@@H](C)C(=O)NCc3ccncc3)oc(=O)c12 , system UniProt:P10210?
6.00

Please tell me: pIC50 of Cc1c(NC(=O)OC(C)(C)C)ccc2nc(N(C)[C@@H](Cc3ccccc3)C(=O)N(C)Cc3ccccn3)oc(=O)c12 , system UniProt:P10210?
5.82

Please tell me: pIC50 of Cc1c(NC(=O)c2cccc(C#N)c2)ccc2nc(NC(C)(C)C(=O)N(C)CCc3ccccn3)oc(=O)c12 , system UniProt:P10210?
5.43

Please tell me: pIC50 of Cc1c(NC(=O)c2ccc(F)cc2)ccc2nc(NC(C)(C)C(=O)N(C)CCc3ccccn3)oc(=O)c12 , system UniProt:P10210?
5.82

Please tell me: pIC50 of Cc1c(NC(=O)OC(C)(C)C)ccc2nc(N[C@H](C(=O)N(C)CCc3ccncc3)C(C)C)oc(=O)c12 , system UniProt:P10210?
5.57
